Tested on: SF-295
Protocol Details: NCI tumour cell line growth inhibition, 48 h
The source made the active and inactive calls. No stated cut-off is given here; in the data, active = GI50 up to about 1.1 µM and inactive = higher.
Measurement Name: GI50

Consider the reported GI50 for these compounds:
* N#Cc1ccc2oc3ccc(C#N)cc3c(=O)c2c1 | 22.9 µM (inactive)
* Cc1cc2cc3ccccc3cc2c(=O)[nH]1 | > 10 µM (inactive)
* OCc1c2c(cc3c1CC1(C3)Cc3cc4c(c(CO)c3C1)CCC4)CCC2 | 12.4 µM (inactive)

Query block: Entry CC(C)=CC1C(C(=O)Oc2ccccc2C(C)C)C1(C)C (stereo unspecified) , system SF-295: what GI50 was measured?
Result block: 17.7 µM (inactive)

Query block: // repeat for CC1=CC2=C(C#N)C(=O)OC2(C)C(c2ccccc2)C1 (stereo unspecified) and report
Result block: > 100 µM (inactive)

Query block: // repeat for O=[N+]([O-])C(C(Cl)=C(Cl)Cl)=C(N1CCCCC1)N1CCCCC1 and report
Result block: > 100 µM (inactive)

Query block: // repeat for c1cncc(CSc2nc3ccccc3nc2-c2cccs2)c1 and report
Result block: > 100 µM (inactive)

Query block: // repeat for c1ccc(C2SCC3=Nc4ccccc4CN32)cc1 (stereo unspecified) and report
Result block: 14.7 µM (inactive)

Query block: // repeat for O=CCC1CCCCC1 and report
Result block: > 100 µM (inactive)

Query block: // repeat for CC(Br)CN(CC(C)Br)c1ccc2c(c1)Cc1ccccc1-2 (stereo unspecified) and report
Result block: 10.7 µM (inactive)

Query block: // repeat for CC1(C)O[C@@H](CP(c2cccc3ccccc23)c2cccc3ccccc23)[C@H](CP(c2cccc3ccccc23)c2cccc3ccccc23)O1 and report
Result block: > 100 µM (inactive)

* * *

Tested on: HOP-92
Protocol Details: NCI tumour cell line growth inhibition, 48 h
Calls of active or inactive are those of the source. Cut-off read from the data, not from the text of the source: active = GI50 up to about 1.1 µM and inactive = higher.
Hi! Could you answer with just one of these? Yes for active, No for inactive

Study these solved cases before continuing.
- O=C(OCc1ccccc1CN1CCOCC1)c1cccc(Br)c1: No
- N=c1oc2ccc3ccccc3c2cc1-c1nc(O)c2ccccc2n1: No
- CCN(C(=S)N[C@@H](Cc1ccccc1)C(=O)N[C@@H](CC(C)C)C(=O)OC)c1ccccc1: No

Now look at this one.
Query block: Write down the call the test reported for this compound. Item: N=C1C=C(N)C(=O)c2[nH]c(=O)ccc21
Result block: No

* * *

Test system: U-251
Protocol Details: NCI tumour cell line growth inhibition, 48 h
Active and inactive are the calls of the source. No stated cut-off is given here; in the data, active = GI50 up to about 1.1 µM and inactive = higher.
Overview of recorded GI50 for various compounds

Query block: Which GI50 is reported for this compound? Nc1ccccc1N/C(=C\C(=O)C(Cl)(Cl)Cl)c1ccccc1
Result block: 16.8 µM (inactive)

Query block: // repeat for C(=C\C(Sc1ccccc1)c1ccccc1)/NNC1=NN=C(c2ccccc2)C(c2ccccc2)N1 (stereo not given) and report
Result block: 30 µM (inactive)

Query block: // repeat for CC(=O)c1ccc(Nc2nc3ccccc3c3occc23)cc1 and report
Result block: 18.8 µM (inactive)

Query block: // repeat for c1ccc2c(c1)N=C(c1cccc3ccccc13)CC(c1ccc3c(c1)OCO3)S2 (stereo not given) and report
Result block: 73.3 µM (inactive)

* * *

Overview of recorded GI50 for various compounds
System: UACC-62
Protocol Details: NCI tumour cell line growth inhibition, 48 h
The source made the active and inactive calls. Rule as the data show it: active = GI50 up to about 1.1 µM and inactive = higher.

Consider the reported GI50 for these compounds:
* Cc1cc2cc3ccccc3cc2c(=O)[nH]1 | > 10 µM (inactive)
* CCCCCC(=O)N[C@H]1CCc2cc(O)c(O)c(O)c2-c2ccc(SC)c(=O)cc21 | 31.6 µM (inactive)
* CC(C)C[C@H](NC(=O)[C@@H](Cc1cccc2ccccc12)NC(=O)N1CCOCC1)B(O)O | 4.02 µM (inactive)
* CCCC1c2c(ccc3ccccc23)Oc2ccc3ccccc3c21 | 84.9 µM (inactive)

Query block: Entry Cc1c(N2CCCC2)cc2c(c1NC(=O)c1ccccc1Cl)C(C)(C)CC2(C)C , system UACC-62: what GI50 was measured?
Result block: 10.8 µM (inactive)

* * *

System: SW-620
Protocol Details: NCI tumour cell line growth inhibition, 48 h
The source made the active and inactive calls. No stated cut-off is given here; in the data, active = GI50 up to about 1.1 µM and inactive = higher.
Overview of recorded GI50 for various compounds

* COc1cc2c(cc1OC)C(C1(O)CCCCC1)NCC2 (configuration not stated) | > 100 µM (inactive)
* CC(C)(C)c1cc2c(c(C(C)(C)C)c1O)CC(=O)O2 | 42.4 µM (inactive)
* COc1ccc(-c2nc(-c3cnccn3)n(C3OC(CO)C(O)C(O)C3O)n2)cc1 (configuration not stated) | > 100 µM (inactive)
* COC(=O)CCc1cc(OC)c2oc(-c3ccc(OC)c(OC)c3)c(CO)c2c1 | > 100 µM (inactive)

Query block: Which GI50 is reported for this compound? C=CCCCC(C#N)(c1ccccc1)N1CCCC1 (configuration not stated)
Result block: > 100 µM (inactive)

Query block: // repeat for O=C(O)C1CC(c2ccc(F)cc2)=Nc2ccc(F)cc2S1 (configuration not stated) and report
Result block: > 100 µM (inactive)

Query block: // repeat for CC1(C)OC1CC/C(=C/CBr)CBr (configuration not stated) and report
Result block: 15 µM (inactive)

* * *

Tested on: SK-MEL-28
Protocol Details: NCI tumour cell line growth inhibition, 48 h
Calls of active or inactive are those of the source. Rule as the data show it: active = GI50 up to about 1.1 µM and inactive = higher.
Overview of recorded GI50 for various compounds

* COC(=O)/C=C(/C)n1nc2ccccc2n1 | > 100 µM (inactive)
* N#CC1=C(N)N(c2ccccc2)C(c2ccco2)C1(C#N)C#N (stereo not drawn) | 17.9 µM (inactive)
* c1ccc2c(c1)CCN1CCc3ccccc3C1C2 (stereo not drawn) | 59.6 µM (inactive)

Query block: Which GI50 is reported for this compound? CCC(=O)O[C@H]1CC[C@H]2[C@@H]3CCC4=CC(=O)C=C[C@]4(O)[C@H]3CC[C@]12C
Result block: 67.6 µM (inactive)

Query block: // repeat for N#Cc1ccc(Nc2cnc3ccc(N)cc3n2)cc1 and report
Result block: > 100 µM (inactive)

Query block: // repeat for CSCC(COC(C)=O)(CSC)c1ccncc1 and report
Result block: > 100 µM (inactive)

Query block: // repeat for CC(C)(C)OC(=O)NC(Cc1ccccc1)NC(=O)NC(=O)OCc1ccccc1 (stereo not drawn) and report
Result block: 38.9 µM (inactive)

Query block: // repeat for OC(CCN1CCN(CCOC(c2ccc(F)cc2)c2ccc(F)cc2)CC1)c1ccccc1 (stereo not drawn) and report
Result block: 17.5 µM (inactive)

* * *

Overview of recorded GI50 for various molecules
System: LOX IMVI
Protocol Details: NCI tumour cell line growth inhibition, 48 h
Calls of active or inactive are those of the source. No stated cut-off is given here; in the data, active = GI50 up to about 1.1 µM and inactive = higher.

Consider the reported GI50 for these molecules:
* COc1ccc2c(c1)c1c(n2CCN(C)C)-c2cccc(OC)c2CC1 | 13.4 µM (inactive)
* Oc1cccc2c1NC1=C(CCC/C1=C\c1ccccc1)C2 | 73.3 µM (inactive)
* O=C1c2ccccc2OCC12OC21C=CC(Cl)=CC1 (stereo not given) | 13.5 µM (inactive)
* Cc1cccc(C2=C/C(=C(\SS/C(C(=O)c3ccc(OCC(=O)O)c(Cl)c3Cl)=C3\C=C(c4cccc(C)c4)SS3)C(=O)c3ccc(OCC(=O)O)c(Cl)c3Cl)SS2)c1 | 4.69 µM (inactive)

Next molecule, please.
Query block: Which GI50 is reported for this molecule? N#CC(C(=O)C(=O)Nc1ccccc1)c1ccccc1 (stereo not given)
Result block: > 100 µM (inactive)

* * *

Tested on: U-251
Protocol Details: NCI tumour cell line growth inhibition, 48 h
Activity calls are given as the source filed them. Cut-off read from the data, not from the text of the source: active = GI50 up to about 1.1 µM and inactive = higher.
Overview of recorded GI50 for various compounds

Consider the reported GI50 for these compounds:
- CC1=C(C(=O)Nc2ccccc2)C(c2ccc(N(C)C)cc2)C(C(=O)Nc2ccccc2)=C(C)N1: 15.9 µM (inactive)
- CC(=O)O[C@@H]1CC[C@@]2(C)C(=O)C34C[C@@]5(C)C([C@@H](C)CCCC(C)C)CCC5(C)[C@](O)(O3)C(=O)[C@H]4C2C1(C)C (some centres undefined): 14.3 µM (inactive)
- CN(C)C1(N(C)C)Oc2c(c(=O)n(C)c(=O)n2C)C(c2ccc(F)cc2)C1(F)F (centres undefined): > 100 µM (inactive)

Next compound, please.
Query block: Entry C=C1C(=O)OC2C(C)C3C=CC(=O)[C@@]3(C)C(OC(=O)/C(C)=C/C)C1[C@@H]2OC(C)=O (some centres undefined) , system U-251: what GI50 was measured?
Result block: 1.15 µM (inactive)

* * *

Tested on: CAKI-1
Protocol Details: NCI tumour cell line growth inhibition, 48 h
Calls of active or inactive are those of the source. No stated cut-off is given here; in the data, active = GI50 up to about 1.1 µM and inactive = higher.
Measurement Name: GI50

Consider the reported GI50 for these compounds:
• OCCNCO = > 100 µM (inactive)
• CCOC(=O)c1c(C)[nH]c2c1c(CN(C)C)c(O)c1nc(C)c(C)nc12 = 28.4 µM (inactive)

Query block: Which GI50 is reported for this compound? COc1cccc(NC(=O)c2c(SC)c(C#N)c(=O)n(N)c2N)c1
Result block: > 100 µM (inactive)

Query block: // repeat for NNC(=O)C(=O)N/N=C1/CCCC1C(=O)CCC(=O)Nc1ccc(Cl)cc1 (stereo not given) and report
Result block: 20.5 µM (inactive)

Query block: // repeat for CC(C)(C)[Si](C)(C)OCC1OC(n2cnc3c(N)ncnc32)C(O)C1O (stereo not given) and report
Result block: > 100 µM (inactive)

Query block: // repeat for c1ccc2c(c1)N=C(c1cccc3ccccc13)CC(c1ccc3c(c1)OCO3)S2 (stereo not given) and report
Result block: > 100 µM (inactive)

Query block: // repeat for COc1cc(N(CCC#N)CCC#N)ccc1C(=N/NC(=O)c1cc(Br)ccc1O)/N=N/c1ccc(C)cc1 and report
Result block: 27.9 µM (inactive)

Query block: // repeat for COc1cc(OC)cc(C(=O)NC2=C(Cl)C(=O)c3ccccc3C2=O)c1 and report
Result block: 5.4 µM (inactive)

Reference for the values: ChEMBL document CHEMBL1201862
